The reported measurements were obtained from PubChem BioAssay (NCI).

Entries and their log10 TGI values follow.
Tested on: RXF 393 renal
measurementNotes: NCI tumour cell line growth inhibition, 48 h
log10 TGI, µM

{"compound": "CCCOc1ccc(/C=C/c2cc(OC)c(OC)c(OC)c2)cc1", "log10 TGI": -0.04}
{"compound": "CC(C)=CC(=O)Cc1nc2ccccc2[nH]c1=O", "log10 TGI": 1.90}
{"compound": "CCCCCCCCCCCCCCCC(=O)NC1CCc2cc(O)c(O)c(O)c2-c2ccc(SC)c(=O)cc21 (stereo unspecified)", "log10 TGI": 0.88}
{"compound": "CCN(CC)CCC(=O)Nc1cccc2c1C(=O)c1c(c(O)c3ccccc3c1O)C2=O", "log10 TGI": 1.38}
{"compound": "C=C1C(=O)O[C@H]2[C@H]1CC/C(COC(=O)NCCc1ccc(OC)cc1)=C\\CC[C@@]1(C)O[C@@H]21", "log10 TGI": 0.49}
{"compound": "COc1ccc(NC2=C(Sc3nc(C)cc(C)n3)C(=O)N(Cc3ccccc3)C2=O)cc1Cl", "log10 TGI": 2.13}

## Input GET /values?readout=log10 TGI&item= OCCNc1nc(NCCO)nc(Nc2ccc(C3=NN(c4cc(Cl)cc(Cl)c4)C(c4ccc(Cl)cc4)C3)cc2)n1 (stereo unspecified)
## Output 0.46

## Input GET /values?readout=log10 TGI&item= `N#Cc1nc(-c2cccc(Br)c2)cc(-c2ccc(Nc3nc(N4CCCCC4)nc(N4CCCCC4)n3)cc2)c1N`
## Output 0.48

## Input GET /values?readout=log10 TGI&item= `CC(=O)OCC(=O)[C@@]1(O)[C@H](C)C[C@H]2[C@@H]3C=C(C)C4=Cc5c(cnn5-c5ccc(F)cc5)C[C@]4(C)[C@H]3[C@@H](O)C[C@@]21C`
## Output 0.37

## Input GET /values?readout=log10 TGI&item= `O=C(Nc1ccccc1Cl)c1cnc2ccc(C3CCNCC3)cn12`
## Output 0.68

## Input GET /values?readout=log10 TGI&item= C=CCOc1cc2c(cc1C(C)c1ccc(OC)cc1)OCO2 (stereo unspecified)
## Output -0.31

## Input GET /values?readout=log10 TGI&item= `Cc1ccc(NC(=O)c2ccnc(C(F)(F)F)c2)cc1-c1cc(OCCO)nc(N2CCOCC2)c1`
## Output 1.02

## Input GET /values?readout=log10 TGI&item= `N#CCCc1nc2ccc(Br)cc2c(=O)n1-c1ccc(O)c([N+](=O)[O-])c1`
## Output 1.51

## Input GET /values?readout=log10 TGI&item= `Cc1sc2ncnc(NCCc3ccccc3)c2c1C`
## Output 1.53
